assay: Plasma pharmacokinetics after single and multiple oral doses (noncompartmental analysis); format: in vivo, human; details: human, plasma, oral; single dose 20 mg; read-out: AUClast, geometric mean (CV%)
measured.quantity: AUC(0-t)
Answer with the figure and its unit, nothing else.

Kindly indicate its recorded AUC(0-t). Item: `COCCNCc1ccc(-c2cc3nccc(Oc4ccc(NC(=O)C5(C(=O)Nc6ccc(F)cc6)CC5)cc4F)c3s2)nc1`
300 ng·h/mL

----------
assay: Plasma pharmacokinetics after single and multiple oral doses (noncompartmental analysis); type: in vivo, human; conditions: human, plasma, oral; single dose 10 mg; read-out: AUClast, geometric mean (CV%)
measured.quantity: AUC(0-t)

Kindly indicate its recorded AUC(0-t). Item: COCCNCc1ccc(-c2cc3nccc(Oc4ccc(NC(=O)C5(C(=O)Nc6ccc(F)cc6)CC5)cc4F)c3s2)nc1 [sitravatinib, Sitravatinib]
149 ng·h/mL

----------
experiment: Plasma pharmacokinetics after single and multiple oral doses (noncompartmental analysis); format: in vivo, human; conditions: human, plasma, oral; single dose 200 mg; read-out: AUClast, geometric mean (CV%)
measured.quantity: AUC(0-t) (ng·h/mL)
Number in ng·h/mL, nothing else.

Kindly indicate its recorded AUC(0-t). Item: `COCCNCc1ccc(-c2cc3nccc(Oc4ccc(NC(=O)C5(C(=O)Nc6ccc(F)cc6)CC5)cc4F)c3s2)nc1`
3300

----------
Test: Plasma pharmacokinetics after single and multiple oral doses (noncompartmental analysis)
Format: in vivo, human
Conditions: human, plasma, oral; single dose 150 mg; read-out: AUC∞, geometric mean (CV%)
Description: In the PK lead-in period, patients received a single oral dose of sitravatinib (10–200 mg) under fasted conditions with at least 200 mL of water, followed by PK sample collection for 3–7 days, depending on emerging PK information. […] PK samples were collected after a single dose during the PK lead-in period and following multiple oral doses during the study. Plasma PK samples were assayed for quantification of sitravatinib. The lower limit of quantification was 0.05 ng/mL. […]
measured.quantity: AUC(0-inf)

Kindly indicate its recorded AUC(0-inf). Item: `COCCNCc1ccc(-c2cc3nccc(Oc4ccc(NC(=O)C5(C(=O)Nc6ccc(F)cc6)CC5)cc4F)c3s2)nc1`
3560 ng·h/mL

----------
experiment: Plasma pharmacokinetics after single and multiple oral doses (noncompartmental analysis); assay type: in vivo, human; conditions: human, plasma, oral, 20 mg, 20 mg QD, Cycle 1 Day 15; read-out: Cmax,ss, geometric mean (CV%)
measured.quantity: Cmax (ng/mL)
Number in ng/mL, nothing else.

Kindly indicate its recorded Cmax. Item: `COCCNCc1ccc(-c2cc3nccc(Oc4ccc(NC(=O)C5(C(=O)Nc6ccc(F)cc6)CC5)cc4F)c3s2)nc1`
23.7

----------
assay: Plasma pharmacokinetics after single and multiple oral doses (noncompartmental analysis); format: in vivo, human; settings: human, plasma, oral; 200 mg QD, Cycle 1 Day 15, single patient result; read-out: AUCτ,ss
measured.quantity: AUC

Kindly indicate its recorded AUC. Item: `COCCNCc1ccc(-c2cc3nccc(Oc4ccc(NC(=O)C5(C(=O)Nc6ccc(F)cc6)CC5)cc4F)c3s2)nc1`
4130 ng·h/mL

----------
assay: Plasma pharmacokinetics after single and multiple oral doses (noncompartmental analysis); type: in vivo, human; settings: human, plasma, po, single oral 10–200 mg, fasting; read-out: Median tmax, range across dose levels
measured.quantity: Tmax

Kindly indicate its recorded Tmax. Item: `COCCNCc1ccc(-c2cc3nccc(Oc4ccc(NC(=O)C5(C(=O)Nc6ccc(F)cc6)CC5)cc4F)c3s2)nc1`
3.02 to 8.87 h

----------
Assay: Plasma pharmacokinetics after single and multiple oral doses (noncompartmental analysis)
Assay type: in vivo, human
Conditions: human, plasma, oral; single dose 200 mg; read-out: Vz/F, geometric mean (CV%)
Experimental: In the PK lead-in period, patients received a single oral dose of sitravatinib (10–200 mg) under fasted conditions with at least 200 mL of water, followed by PK sample collection for 3–7 days, depending on emerging PK information. […] PK samples were collected after a single dose during the PK lead-in period and following multiple oral doses during the study. Plasma PK samples were assayed for quantification of sitravatinib. The lower limit of quantification was 0.05 ng/mL. […]
measured.quantity: Vd/F (L)
Number in L, nothing else.

Kindly indicate its recorded Vd/F. Item: COCCNCc1ccc(-c2cc3nccc(Oc4ccc(NC(=O)C5(C(=O)Nc6ccc(F)cc6)CC5)cc4F)c3s2)nc1 [sitravatinib, Sitravatinib]
3660

----------
assay: Plasma pharmacokinetics after single and multiple oral doses (noncompartmental analysis); format: in vivo, human; settings: human, plasma, oral, 40 mg, single dose 40 mg; read-out: Cmax, geometric mean (CV%)
measured.quantity: Cmax (ng/mL)
Number in ng/mL, nothing else.

Kindly indicate its recorded Cmax. Item: `COCCNCc1ccc(-c2cc3nccc(Oc4ccc(NC(=O)C5(C(=O)Nc6ccc(F)cc6)CC5)cc4F)c3s2)nc1`
11.8

----------
Assay: Plasma pharmacokinetics after single and multiple oral doses (noncompartmental analysis)
Assay type: in vivo, human
Settings: human, plasma, oral, 110 mg, 110 mg QD, Cycle 1 Day 15; read-out: Cmax,ss, geometric mean (CV%)
Experimental: In the PK lead-in period, patients received a single oral dose of sitravatinib (10–200 mg) under fasted conditions with at least 200 mL of water, followed by PK sample collection for 3–7 days, depending on emerging PK information. […] PK samples were collected after a single dose during the PK lead-in period and following multiple oral doses during the study. Plasma PK samples were assayed for quantification of sitravatinib. The lower limit of quantification was 0.05 ng/mL. […]
measured.quantity: Cmax (ng/mL)
Number in ng/mL, nothing else.

Kindly indicate its recorded Cmax. Item: COCCNCc1ccc(-c2cc3nccc(Oc4ccc(NC(=O)C5(C(=O)Nc6ccc(F)cc6)CC5)cc4F)c3s2)nc1 [sitravatinib, Sitravatinib]
119

----------
assay: Plasma pharmacokinetics after single and multiple oral doses (noncompartmental analysis); format: in vivo, human; conditions: human, plasma, oral; single dose 120 mg; read-out: AUC∞, geometric mean (CV%)
measured.quantity: AUC(0-inf) (ng·h/mL)
Number in ng·h/mL, nothing else.

Kindly indicate its recorded AUC(0-inf). Item: COCCNCc1ccc(-c2cc3nccc(Oc4ccc(NC(=O)C5(C(=O)Nc6ccc(F)cc6)CC5)cc4F)c3s2)nc1 [sitravatinib, Sitravatinib]
1320

----------
test: Plasma pharmacokinetics after single and multiple oral doses (noncompartmental analysis); format: in vivo, human; details: human, plasma, oral, 110 mg, 110 mg QD, Cycle 1 Day 15; read-out: tmax,ss, median (min–max)
measured.quantity: Tmax (h)
Number in h, nothing else.

Kindly indicate its recorded Tmax. Item: COCCNCc1ccc(-c2cc3nccc(Oc4ccc(NC(=O)C5(C(=O)Nc6ccc(F)cc6)CC5)cc4F)c3s2)nc1 [sitravatinib, Sitravatinib]
2

----------
Experiment: Plasma pharmacokinetics after single and multiple oral doses (noncompartmental analysis)
Type: in vivo, human
Details: human, plasma, oral, 40 mg, 40 mg QD, Cycle 1 Day 15; read-out: tmax,ss, median (min–max)
Procedure: In the PK lead-in period, patients received a single oral dose of sitravatinib (10–200 mg) under fasted conditions with at least 200 mL of water, followed by PK sample collection for 3–7 days, depending on emerging PK information. […] PK samples were collected after a single dose during the PK lead-in period and following multiple oral doses during the study. Plasma PK samples were assayed for quantification of sitravatinib. The lower limit of quantification was 0.05 ng/mL. […]
measured.quantity: Tmax
Answer with the figure and its unit, nothing else.

Kindly indicate its recorded Tmax. Item: COCCNCc1ccc(-c2cc3nccc(Oc4ccc(NC(=O)C5(C(=O)Nc6ccc(F)cc6)CC5)cc4F)c3s2)nc1 [sitravatinib, Sitravatinib]
4 h

----------
Assay: Plasma pharmacokinetics after single and multiple oral doses (noncompartmental analysis)
Format: in vivo, human
Conditions: human, plasma, oral; single dose 40 mg; read-out: t1/2, arithmetic mean (CV%) (converted)
Description: In the PK lead-in period, patients received a single oral dose of sitravatinib (10–200 mg) under fasted conditions with at least 200 mL of water, followed by PK sample collection for 3–7 days, depending on emerging PK information. […] PK samples were collected after a single dose during the PK lead-in period and following multiple oral doses during the study. Plasma PK samples were assayed for quantification of sitravatinib. The lower limit of quantification was 0.05 ng/mL. […]
measured.quantity: half-life (h)
Number in h, nothing else.

Kindly indicate its recorded half-life. Item: COCCNCc1ccc(-c2cc3nccc(Oc4ccc(NC(=O)C5(C(=O)Nc6ccc(F)cc6)CC5)cc4F)c3s2)nc1 [sitravatinib, Sitravatinib]
46.5

----------
test: Plasma pharmacokinetics after single and multiple oral doses (noncompartmental analysis); type: in vivo, human; details: human, plasma, oral; single dose 110 mg; read-out: AUClast, geometric mean (CV%)
measured.quantity: AUC(0-t) (ng·h/mL)
Number in ng·h/mL, nothing else.

Kindly indicate its recorded AUC(0-t). Item: COCCNCc1ccc(-c2cc3nccc(Oc4ccc(NC(=O)C5(C(=O)Nc6ccc(F)cc6)CC5)cc4F)c3s2)nc1 [sitravatinib, Sitravatinib]
2030

----------
experiment: Plasma pharmacokinetics after single and multiple oral doses (noncompartmental analysis); format: in vivo, human; conditions: human, plasma, oral; single dose 200 mg; read-out: t1/2, arithmetic mean (CV%) (converted)
measured.quantity: half-life (h)
Number in h, nothing else.

Kindly indicate its recorded half-life. Item: COCCNCc1ccc(-c2cc3nccc(Oc4ccc(NC(=O)C5(C(=O)Nc6ccc(F)cc6)CC5)cc4F)c3s2)nc1 [sitravatinib, Sitravatinib]
51.5

Data provenance: paper PMC9395446
